- Tested on: rat red blood cells
- ASSAY_NAME: Haemolysis
- Assay type: cell-based
- MEASUREMENT_PARAMETERS: rat red blood cells, 1 hour, 37° C.
- Description: Fresh rat red blood cells (RBCs) were diluted with PBS buffer to give an RBC stock suspension (4 vol % blood cells). […] Haemolytic activity was determined as a function of haemoglobin release by measuring OD576 of 100 μL of the supernatant using a microplate reader (TECAN). […] Absorbance of red blood cells lysed with 0.5% Triton-X was taken as 100% haemolysis. The data were expressed as mean and S.D. of four replicates, and the tests were repeated two times.
The compounds listed here are annotated with their HC10.

OCc1ccccc1Cn1cc[n+](Cc2ccccc2C[n+]2ccn(Cc3ccccc3CO)c2)c1.[Br-].[Br-] [F-diol5] :: >2000 µg/mL

What does the data say about its HC10? Entry: CCCCCCCCn1cc[n+](Cc2ccc(Cn3cc[n+](Cc4ccc(C[n+]5ccn(Cc6ccc(OCn7cc[n+](Cc8ccc(Cn9cc[n+](Cc%10ccc(Cn%11cc[n+](CCCCCCCC)c%11)cc%10)c9)cc8)c7)cc6)c5)cc4)c3)cc2)c1.[Br-].[Br-].[Br-].[Br-].[Br-].[Br-] [IBN-HC8]
>2000 µg/mL

Next compound: OCc1ccc(Cn2cc[n+](C/C=C/Cn3cc[n+](Cc4ccc(CO)cc4)c3)c2)cc1 [F-diol1]
>2000 µg/mL

Now give it for CCCCCCCCn1cc[n+](Cc2ccc(Cn3cc[n+](Cc4ccc(C[n+]5ccn(Cc6ccc(CO)cc6)c5)cc4)c3)cc2)c1.[Br-].[Br-].[Br-] [F1-CH2OH] too.
>2000 µg/mL

Now consider CN[C@H](CC(C)C)C(=O)N[C@H]1C(=O)N[C@@H](CC(N)=O)C(=O)N[C@H]2C(=O)N[C@H]3C(=O)N[C@H](C(=O)N[C@H](C(=O)O)c4cc(O)cc(O)c4-c4cc3ccc4O)[C@H](O)c3ccc(c(Cl)c3)Oc3cc2cc(c3O[C@@H]2O[C@H](CO)[C@@H](O)[C@H](O)[C@H]2O[C@H]2C[C@](C)(N)[C@H](O)[C@H](C)O2)Oc2ccc(cc2Cl)[C@H]1O [Vancomycin, reference compound] .
>2000 µg/mL

Okay, and OCc1ccc(Cn2cc[n+](Cc3ccccc3Cn3cc[n+](Cc4ccc(CO)cc4)c3)c2)cc1 [F-diol3] ?
>2000 µg/mL

Next up: OCc1ccc(Cn2cc[n+](Cc3ccc(C[n+]4ccn(Cc5ccc(CO)cc5)c4)cc3)c2)cc1.[Br-].[Br-] [F-diol2]
>2000 µg/mL

Next: CCCCCCCCn1cc[n+](Cc2ccc(Cn3cc[n+](Cc4ccc(C[n+]5ccn(Cc6ccc(CN)cc6)c5)cc4)c3)cc2)c1.[Br-].[Br-].[Br-] [F1-CH2NH2]
1000 µg/mL

The reported measurements were obtained from patent US10927100B2.
